- target: c-Met (cytoplasmic domain) (Homo sapiens)
- Construct: 10 ng/mL c-Met (cytoplasmic domain, Invitrogen Corporation #PV3143); purchased Invitrogen Corporation PV3143
- Sequence (P08581 956-1390 limits assumed): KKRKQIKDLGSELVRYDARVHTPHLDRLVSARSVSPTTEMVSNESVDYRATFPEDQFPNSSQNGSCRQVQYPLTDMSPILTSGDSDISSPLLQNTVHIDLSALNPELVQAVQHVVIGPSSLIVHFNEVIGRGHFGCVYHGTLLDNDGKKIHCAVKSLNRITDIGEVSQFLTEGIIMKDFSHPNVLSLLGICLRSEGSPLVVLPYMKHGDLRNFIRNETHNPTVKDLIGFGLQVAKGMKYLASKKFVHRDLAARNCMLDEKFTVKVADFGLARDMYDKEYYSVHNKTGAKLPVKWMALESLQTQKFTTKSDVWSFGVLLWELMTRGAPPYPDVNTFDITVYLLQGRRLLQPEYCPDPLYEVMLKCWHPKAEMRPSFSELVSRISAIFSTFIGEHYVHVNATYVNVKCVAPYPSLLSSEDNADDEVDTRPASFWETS
- assay_protocol: c-Met Kinase Assay (same methods as for ALK, with modifications)
- Type: biochemical
- measurement_parameters: 1 μM ATP (Km level); read-out: cMet Activity (c-Met Kinase Inhibition, IC50)
pIC50: −log10 of the molar value.
property_label: pIC50

Recorded pIC50, per entry:
compound=COc1ccc(Nc2nc(Nc3cc4c(cc3OC)CCN(CC(=O)N(C)C)CC4)ncc2Cl)c(N2CCOCC2)c1 target="c-Met (cytoplasmic domain) (Homo sapiens)" endpoint_value="< 5.00"
compound=COc1cc2c(cc1Nc1ncc(Cl)c(Nc3ccc(N4CCN(C(C)C)CC4)c4c3C(=O)N(C)C4)n1)CCN(CCO)CC2 target="c-Met (cytoplasmic domain) (Homo sapiens)" endpoint_value="< 5.00"
compound="COCCN(C)C1CCc2ccc(Nc3ncc(Cl)c(N[C@H]4[C@@H](C(N)=O)[C@@H]5C=C[C@H]4C5)n3)c(OC)c2CC1 (single isomer, unassigned) [Example 700]" target="c-Met (cytoplasmic domain) (Homo sapiens)" endpoint_value="< 5.00"
compound=CCN1C(=O)CCCc2c1ccc(Nc1ncc(Cl)c(Nc3ccc(OC)cc3C(=O)OC(C)C)n1)c2OC target="c-Met (cytoplasmic domain) (Homo sapiens)" endpoint_value="< 5.00"
compound=COc1cc2c(cc1Nc1ncc(Cl)c(NC3(CC(N)=O)CCCCC3)n1)CCN(CC(=O)N(C)C)CC2 target="c-Met (cytoplasmic domain) (Homo sapiens)" endpoint_value="< 5.00"
compound=COc1cc2c(cc1Nc1ncc(Cl)c(Nc3ccc(C(F)(F)F)cc3S(=O)(=O)N(C)C)n1)CCN(CC(=O)N(C)C)CC2 target="c-Met (cytoplasmic domain) (Homo sapiens)" endpoint_value="< 5.00"
compound=O=C1CCCc2cc(Nc3ncc(Cl)c(Nc4ccccc4-c4nc(C(F)(F)F)c[nH]4)n3)ccc2N1 target="c-Met (cytoplasmic domain) (Homo sapiens)" endpoint_value="6.00 to 7.00"
compound=COCCN1CCc2ccc(Nc3ncc(Cl)c(Nc4ccc(N5CCN(C(C)C)CC5)c5c4C(=O)N(C)C5)n3)cc2CC1 target="c-Met (cytoplasmic domain) (Homo sapiens)" endpoint_value="6.00 to 7.00"
compound="CN1CCN(C2CCc3ccc(Nc4ncc(Cl)c(N[C@@H]5CCCC[C@H]5NS(C)(=O)=O)n4)cc3CC2)CC1 (stereo partly shown)" target="c-Met (cytoplasmic domain) (Homo sapiens)" endpoint_value="5.00 to 6.00"
compound=CNC(=O)c1cccc(Nc2nc(Nc3ccc4c(c3)CCCC(=O)N4C)ncc2Cl)c1 target="c-Met (cytoplasmic domain) (Homo sapiens)" endpoint_value="5.00 to 6.00"

Look up and state reported pIC50 for "COc1cc2c(cc1Nc1ncc(Cl)c(Nc3ccccc3-c3nccn3C)n1)CCN(CC(=O)N(C)C)CC2"
< 5.00

Look up and state reported pIC50 for CNC(=O)c1ccccc1Nc1nc(Nc2ccc3c(c2)CCC(NCC(F)F)CC3)ncc1Cl (stereo not shown)
> 7.00

Look up and state reported pIC50 for "COc1cc2c(cc1Nc1ncc(Cl)c(Nc3ccccc3-n3cccn3)n1)CCN(CC(C)(F)F)CC2"
< 5.00

Look up and state reported pIC50 for "O=C1CCCc2cc(Nc3ncc(Cl)c(Nc4ccccc4-c4cnco4)n3)ccc2N1"
6.00 to 7.00

Look up and state reported pIC50 for "CCN1C(=O)CNCc2cc(OC)c(Nc3ncc(Cl)c(Nc4ccccc4S(=O)(=O)C(C)C)n3)cc21"
5.00 to 6.00

Look up and state reported pIC50 for COc1cc(N2CCOCC2)ccc1Nc1nc(Nc2ccc3c(c2OC)CCC(N2CCCC(O)C2)CC3)ncc1Cl (mixture of isomers)
< 5.00

Look up and state reported pIC50 for "CCN1CCN(CC)c2cc(Nc3nc(Nc4cc5c(cc4OC)CCN(CC(=O)N(C)C)CC5)ncc3Cl)ccc2C1=O"
< 5.00

Look up and state reported pIC50 for "CCN1CCN(CC)c2cc(Nc3ncc(Cl)c(Nc4ccccc4-n4cccn4)n3)ccc2C1"
6.00 to 7.00

Look up and state reported pIC50 for "COc1cc2c(cc1Nc1ncc(F)c(Nc3ccc(N4CCOCC4)cc3OC)n1)CCN(CC(=O)N(C)C)CC2"
< 5.00
